// reported pEC50 for each item listed
- Experimental system: CB1 receptor (Homo sapiens)
- Sequence (P21554 whole entry): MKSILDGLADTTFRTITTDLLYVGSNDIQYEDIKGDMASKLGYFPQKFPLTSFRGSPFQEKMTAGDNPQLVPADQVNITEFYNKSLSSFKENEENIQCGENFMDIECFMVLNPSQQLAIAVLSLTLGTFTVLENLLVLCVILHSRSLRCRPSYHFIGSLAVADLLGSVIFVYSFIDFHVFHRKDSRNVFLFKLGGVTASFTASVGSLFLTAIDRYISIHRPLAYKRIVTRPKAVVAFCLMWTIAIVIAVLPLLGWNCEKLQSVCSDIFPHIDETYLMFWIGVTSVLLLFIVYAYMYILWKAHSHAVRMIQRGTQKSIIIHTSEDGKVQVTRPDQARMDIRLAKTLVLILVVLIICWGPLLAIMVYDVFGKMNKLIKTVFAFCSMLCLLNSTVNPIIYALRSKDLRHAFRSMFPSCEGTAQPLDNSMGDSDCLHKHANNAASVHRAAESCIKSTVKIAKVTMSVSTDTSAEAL
- Assay details: cAMP Assay #1: CB1 adenylylcyclase assay in CHO cells
- Format: cell-based
- Design: expressed in transfected cells; host or cells: CHO cells
- Assay context: CHO cells, 20 min 37° C., relative to 10 nM CP 55940; read-out: CB1 Activity EC50 (cAMP)
pEC50: −log10 of the molar value.
Attribute measured: pEC50

>>> print(df.to_string())
                                   molecule          experimental_system  attribute_measured  observed_value
0  CCCCCCC(C)(C)c1cc(O)c2c(c1)OC(C)(C)[C@@H]1CC=C(C(=O)NC[C@H](O)CO)C[C@@H]21 [Compound 56]  CB1 receptor (Homo sapiens)               pEC50            8.44
1  CCCCCCC(C)(C)c1cc(O)c2c(c1)OC(C)(C)[C@@H]1CC=C(C(=O)NCC(O)CO)C[C@@H]21 (stereo partly shown) [Compound 24]  CB1 receptor (Homo sapiens)               pEC50            7.89
2  CCCCCCC(C)(C)c1cc(O)c2c(c1)OC(C)(C)[C@@H]1CC=C(C(=O)NC[C@@H](O)CO)C[C@@H]21 [Compound 55]  CB1 receptor (Homo sapiens)               pEC50            7.35
3  CCCCCCC(C)(C)c1cc(O)c2c(c1)OC(C)(C)[C@@H]1CC=C(C(=O)NCCCO)C[C@@H]21 [Compound 13]  CB1 receptor (Homo sapiens)               pEC50            8.34

These data points were gathered from patent US20210284621A1.
